Test: 13-week repeated oral toxicity: weight measurement
Format: in vivo, beagle
Conditions: 500 mg/kg repeated oral (G3), female, week 8, mean
ENDPOINT NAME: Weight, Mean
Note: state the figure and append the unit.

The value of Weight, Mean measured for the compound CN1C(=O)NC(=O)C1O (stereo not shown) [KBP-001] turned out to be 9.8 kg

* * *

Experiment: 13-week repeated oral toxicity: weight measurement
Format: in vivo, beagle
Details: 1,000 mg/kg repeated oral (G4), female, week 13, mean
ENDPOINT NAME: Weight, Mean

Value of Weight, Mean reported for the compound CN1C(=O)NC(=O)C1O (stereo not shown) is 9.8 kg

* * *

Assay: 13-week repeated oral toxicity: weight measurement
Type: in vivo, beagle
Conditions: 500 mg/kg repeated oral (G3), male, week 2, mean
Description: During the 13-week test period starting from the day before administration, the weight was measured a total of 15 times before administration (pre), before administration on the day of administration, and every week over the 13-week test period after the first administration at a predetermined time (remaining feed measurement time) before administration of the test substance (on every Tuesday during the test period).
ENDPOINT NAME: Weight, Mean (kg)
Give just the numeric value; kg need not be written.

Lookup result for CN1C(=O)NC(=O)C1O (stereo not shown) ; measured Weight, Mean: 9.9
